Values were extracted from patent EP1202975B1.

# test-target: TF-VIIa (Homo sapiens)
# Construct: 2nM recombinant human factor VIIa; purchased American Diagnostica, Greenwich CT; host or cells: soluble TF made in house in E. coli
# assay-remarks: TF-VIIa Assay
# Assay type: biochemical
# measurement-setup: cells given as a plain number (IC50); read-out: IC50 or % Inhibition TF-VIIa (30 µM)
measured-property: IC50 (µM)

[
  {
    "compound": "N=C(N)c1ccc(CNC(=O)Cn2c(-c3ccccc3)c(Cl)nc(NCCc3ccncc3)c2=O)cc1 [Example 19]",
    "measured-property": "IC50",
    "observed-measurement": 0.8
  },
  {
    "compound": "N=C(N)c1ccc(CNC(=O)Cn2c(-c3ccccc3)c(Cl)nc(NC3CCS(=O)(=O)C3)c2=O)cc1 (stereo not drawn) [1522-46]",
    "measured-property": "IC50",
    "observed-measurement": 1
  },
  {
    "compound": "COC(=O)c1cccc(-c2c(Cl)nc(NC(C)C)c(=O)n2CC(=O)NCc2ccc(C(=N)N)cc2)c1",
    "measured-property": "IC50",
    "observed-measurement": 0.78
  }
]

---

// reported IC50 for each item listed
# test-target: Human factor Xa (Homo sapiens, UniProt P00742)
# Sequence (P00742 235-488 limits assumed): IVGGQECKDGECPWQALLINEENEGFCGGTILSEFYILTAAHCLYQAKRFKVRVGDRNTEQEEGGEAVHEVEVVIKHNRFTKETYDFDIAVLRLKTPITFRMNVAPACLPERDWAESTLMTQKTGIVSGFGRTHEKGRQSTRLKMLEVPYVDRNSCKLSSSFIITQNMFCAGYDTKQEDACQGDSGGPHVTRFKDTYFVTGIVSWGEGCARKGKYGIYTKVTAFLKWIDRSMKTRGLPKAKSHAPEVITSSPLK
# Sequence (P00742 41-179 limits assumed): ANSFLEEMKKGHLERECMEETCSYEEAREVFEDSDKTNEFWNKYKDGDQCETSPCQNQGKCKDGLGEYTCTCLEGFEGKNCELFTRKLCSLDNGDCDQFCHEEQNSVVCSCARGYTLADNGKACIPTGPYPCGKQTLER
# assay-remarks: Xa Assay

Solved entries:
[
  {
    "record-smiles": "N=C(N)NCCCCCNC(=O)Cn1c(-c2ccccc2)cnc(NCCc2ccccc2)c1=O",
    "test-target": "Human factor Xa (Homo sapiens, UniProt P00742)",
    "IC50": "> 100 µM"
  },
  {
    "record-smiles": "N=C(N)NCCCCNC(=O)Cn1c(-c2ccc3c(c2)OCO3)cnc(NCCc2ccccc2)c1=O",
    "test-target": "Human factor Xa (Homo sapiens, UniProt P00742)",
    "IC50": "> 100 µM"
  },
  {
    "record-smiles": "N=C(N)NCCCNC(=O)Cn1c(-c2ccccc2)cnc(NCCc2ccccc2)c1=O",
    "test-target": "Human factor Xa (Homo sapiens, UniProt P00742)",
    "IC50": "> 100 µM"
  },
  {
    "record-smiles": "COc1ccc(-c2cnc(NCCc3ccccc3)c(=O)n2CC(=O)NCCCCNC(=N)N)cc1",
    "test-target": "Human factor Xa (Homo sapiens, UniProt P00742)",
    "IC50": "> 100 µM"
  },
  {
    "record-smiles": "N=C(N)NCCCCNC(=O)Cn1c(-c2ccccc2)cnc(NCCc2ccccc2)c1=O",
    "test-target": "Human factor Xa (Homo sapiens, UniProt P00742)",
    "IC50": "> 100 µM"
  },
  {
    "record-smiles": "CC(=O)Nc1cccc(-c2c(Cl)nc(NCCc3ccccc3)c(=O)n2CC(=O)NCc2ccc(C(=N)N)cc2)c1",
    "test-target": "Human factor Xa (Homo sapiens, UniProt P00742)",
    "IC50": "> 30 µM"
  }
]

Task item: Missing value: IC50, Human factor Xa (Homo sapiens, UniProt P00742), entry CS(=O)(=O)Nc1cccc(-c2c(Cl)nc(NCCc3ccccc3)c(=O)n2CC(=O)NCc2ccc(C(=N)N)cc2)c1 . Fill in?
Reply: > 30 µM

---

# test-target: TF-VIIa (Homo sapiens, UniProt P08709)
# Construct: 2nM recombinant human factor VIIa; purchased American Diagnostica, Greenwich CT; host or cells: soluble TF made in house in E. coli
# Sequence (P08709 213-466 limits assumed): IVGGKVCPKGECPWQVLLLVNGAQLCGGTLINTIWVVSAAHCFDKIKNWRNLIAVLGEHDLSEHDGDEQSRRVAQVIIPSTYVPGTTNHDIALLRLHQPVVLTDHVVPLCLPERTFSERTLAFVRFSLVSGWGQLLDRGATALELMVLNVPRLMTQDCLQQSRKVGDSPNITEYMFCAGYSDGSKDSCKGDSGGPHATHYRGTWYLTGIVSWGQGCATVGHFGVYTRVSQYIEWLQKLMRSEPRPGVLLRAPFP
# Sequence (P08709 61-212 limits assumed): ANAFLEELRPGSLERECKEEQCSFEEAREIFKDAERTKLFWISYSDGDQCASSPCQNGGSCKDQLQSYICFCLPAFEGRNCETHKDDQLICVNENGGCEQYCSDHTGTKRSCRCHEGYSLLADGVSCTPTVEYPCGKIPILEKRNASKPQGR
# Sequence (P13726 33-251 partner limits assumed): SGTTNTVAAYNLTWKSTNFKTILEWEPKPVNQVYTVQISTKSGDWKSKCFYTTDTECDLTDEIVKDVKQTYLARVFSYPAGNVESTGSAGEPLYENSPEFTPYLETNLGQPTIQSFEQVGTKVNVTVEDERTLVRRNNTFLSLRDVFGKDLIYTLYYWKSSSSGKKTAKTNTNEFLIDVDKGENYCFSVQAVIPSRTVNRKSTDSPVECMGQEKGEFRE
# assay-remarks: TF-VIIa Assay
# Type: biochemical
measured-property: IC50 or % Inhibition TF-VIIa (30 µM) (%)

Example entries and their recorded answers appear below.
[
  {
    "molecule": "N=C(N)c1ccc(CNC(=O)Cn2c(-c3ccccc3)c(Cl)nc(NC3Cc4ccccc4C3)c2=O)cc1 [1507-08]",
    "observed-measurement": 7
  },
  {
    "molecule": "N=C(N)c1ccc(CNC(=O)Cn2c(-c3ccccc3)c(Cl)nc(NCc3cccc(OC(F)(F)F)c3)c2=O)cc1 [1512-40]",
    "observed-measurement": 40
  },
  {
    "molecule": "CC(=O)Nc1cccc(-c2c(Cl)nc(NC(C)C)c(=O)n2CC(=O)NCCc2ccc(C(=N)N)cc2)c1 [Example 68]",
    "observed-measurement": 32
  },
  {
    "molecule": "N=C(N)c1ccc(CNC(=O)Cn2c(-c3ccc(Cl)cc3)c(Cl)nc(NCCN3CCOCC3)c2=O)cc1 [1471-20]",
    "observed-measurement": 42
  },
  {
    "molecule": "N=C(N)c1ccc(CNC(=O)Cn2c(-c3ccc(-c4ccccc4)cc3)c(Cl)nc(NCc3ccncc3)c2=O)cc1 [1471-67]",
    "observed-measurement": 12
  },
  {
    "molecule": "N=C(N)c1ccc(CNC(=O)Cn2c(-c3ccccc3)c(Cl)nc(NCC(F)(F)F)c2=O)cc1 [1507-41]",
    "observed-measurement": 48
  },
  {
    "molecule": "COc1ccc(-c2c(Cl)nc(NCCc3ccncc3)c(=O)n2CC(=O)NCc2ccc(C(=N)N)cc2)cc1 [1471-37]",
    "observed-measurement": 39
  },
  {
    "molecule": "COc1ccc(-c2c(Cl)nc(NCc3ccncc3)c(=O)n2CC(=O)NCc2ccc(C(=N)N)cc2)cc1 [1471-35]",
    "observed-measurement": 37
  }
]

I. N=C(N)c1ccc(CNC(=O)Cn2c(-c3ccccc3)c(Cl)nc(NC(Cc3ccccc3)c3ccccc3)c2=O)cc1 (centres unmarked) [1507-07]
II. N=C(N)c1ccc(CNC(=O)C(Cc2ccccc2)n2c(-c3ccccc3)c(Cl)nc(NC3CCC3)c2=O)cc1 (centres unmarked) [1517-08]
III. N=C(N)c1ccc(CNC(=O)Cn2c(-c3ccc(-c4ccccc4)cc3)c(Cl)nc(NCCc3ccccc3)c2=O)cc1 [1471-71]
IV. COc1ccc(-c2c(Cl)nc(NCCN3CCOCC3)c(=O)n2CC(=O)NCc2ccc(C(=N)N)cc2)cc1 [1471-36]
Task item: Order the items by recorded IC50 or % Inhibition TF-VIIa (30 µM); the first position goes to the largest value. Returns: the labels listed in the requested order.
Reply: II, I, IV, III

P. N=C(N)c1ccc(CNC(=O)Cn2c(-c3ccccc3)c(Cl)nc(NCc3c(F)cccc3C(F)(F)F)c2=O)cc1 [1512-44]
Q. N=C(N)NCC#CCNC(=O)Cn1c(-c2ccccc2)cnc(NCCc2ccccc2)c1=O [Example 36]
Task item: Compare P and Q and name the one whose reported IC50 or % Inhibition TF-VIIa (30 µM) is smaller. Write the label of whichever entry you select.
Reply: Q

I. COc1ccc(-c2c(Cl)nc(NCc3ccccc3)c(=O)n2CC(=O)NCc2ccc(C(=N)N)cc2)cc1 [1471-33]
II. N=C(N)c1ccc(CNC(=O)Cn2c(-c3ccccc3)c(Cl)nc(NCc3ccc(Cl)cc3Cl)c2=O)cc1 [1507-22]
Task item: I'm curious whether I or II has the smaller IC50 or % Inhibition TF-VIIa (30 µM) number. Which is it? Refer to your chosen item by its label in the answer.
Reply: I

---

# test-target: Human factor Xa (Homo sapiens, UniProt P00742)
measured-property: IC50 or % Inhibition Factor Xa (30 µM) (%)

[
  {
    "molecule": "N=C(N)c1ccc(CNC(=O)Cn2c(-c3ccccc3)c(Cl)nc(NCCc3cccc(C(F)(F)F)c3)c2=O)cc1",
    "test-target": "Human factor Xa (Homo sapiens, UniProt P00742)",
    "IC50 or % Inhibition Factor Xa (30 µM) (%)": 4
  },
  {
    "molecule": "C[C@@H](C(=O)NCc1ccc(C(=N)N)cc1)n1c(-c2ccccc2)c(Cl)nc(NCCc2ccccc2)c1=O",
    "test-target": "Human factor Xa (Homo sapiens, UniProt P00742)",
    "IC50 or % Inhibition Factor Xa (30 µM) (%)": 0
  },
  {
    "molecule": "COc1ccc(-c2c(Cl)nc(NCCc3cccnc3)c(=O)n2CC(=O)NCc2ccc(C(=N)N)cc2)cc1",
    "test-target": "Human factor Xa (Homo sapiens, UniProt P00742)",
    "IC50 or % Inhibition Factor Xa (30 µM) (%)": 11
  },
  {
    "molecule": "CC(=O)Nc1cccc(-c2c(Cl)nc(NC(C)C)c(=O)n2CC(=O)NCCc2ccc(C(=N)N)cc2)c1",
    "test-target": "Human factor Xa (Homo sapiens, UniProt P00742)",
    "IC50 or % Inhibition Factor Xa (30 µM) (%)": 6
  },
  {
    "molecule": "CCOc1ccccc1CNc1nc(Cl)c(-c2ccccc2)n(CC(=O)NCc2ccc(C(=N)N)cc2)c1=O",
    "test-target": "Human factor Xa (Homo sapiens, UniProt P00742)",
    "IC50 or % Inhibition Factor Xa (30 µM) (%)": 5
  },
  {
    "molecule": "C[C@H](C(=O)NCc1ccc(C(=N)N)cc1)n1c(-c2ccccc2)c(Cl)nc(NCCc2cccc(Cl)c2)c1=O",
    "test-target": "Human factor Xa (Homo sapiens, UniProt P00742)",
    "IC50 or % Inhibition Factor Xa (30 µM) (%)": 0
  }
]

P. CCCCC(CC)Nc1nc(Cl)c(-c2ccccc2)n(CC(=O)NCc2ccc(C(=N)N)cc2)c1=O (stereo not shown)
Q. COc1ccc(-c2c(Cl)nc(NCc3ccccc3)c(=O)n2CC(=O)NCc2ccc(C(=N)N)cc2)cc1
Task item: Which entry has a larger number for IC50 or % Inhibition Factor Xa (30 µM), P or Q ? Provide the label of your selected option as the answer.
Reply: Q
(Q: 22%, P: 5%)

P. N=C(N)c1ccc(CNC(=O)Cn2c(-c3ccccc3)c(Cl)nc(NC3Cc4ccccc4C3)c2=O)cc1
Q. N=C(N)c1ccc(CNC(=O)Cn2c(-c3ccccc3O)c(Cl)nc(NC3CCC3)c2=O)cc1
Task item: Endpoint returns whichever of P and Q has the numerically higher IC50 or % Inhibition Factor Xa (30 µM). Select an item and report its label.
Reply: P
